experiment: Chemical stability 0.1M Tris buffer at pH 8.1 at 1 mg/ml at room temperature assessed as ratio of Asn-containing cyclic peptides after 48 hrs by HPLC method; type: physicochemical; details: read-out: Stability
Where a SMILES comes first, the peptide text is derived from it. Bridges are numbered along the chain shown (N, C = ends).
MEASURED_METRIC: remaining at 48 h, 1 mg/ml (%)

- CC(=O)N[C@H]1CSSC[C@@H](C(N)=O)NC(=O)[C@H](CCCNC(=N)N)NC(=O)CNC(=O)[C@H](CC(N)=O)NC1=O (Ac-CNGRC-NH2; disulfide 1-5): 71

I = N=C(N)NCCC[C@@H]1NC(=O)CNC(=O)[C@H](CC(N)=O)NC(=O)CCSC[C@@H](C(N)=O)NC1=O
II = N=C(N)NCCC[C@@H]1NC(=O)CNC(=O)[C@H](CC(N)=O)NC(=O)[C@@H]2CCCN2C(=O)CSC[C@@H](C(N)=O)NC1=O ({CH2CO}-PNGRC-NH2; thioether N-5)
III = N=C(N)NCCC[C@@H]1NC(=O)CNC(=O)[C@H](CC(N)=O)NC(=O)[C@H](CCCCN)NC(=O)CSC[C@@H](C(N)=O)NC1=O ({CH2CO}-KNGRC-NH2; thioether N-5)
INPUT: Form: Sort by [remaining at 48 h, 1 mg/ml] Order [ ascending ] Show the ranking through the labels, in the order asked for.
OUTPUT: III, II, I

---

test: Chemical stability 0.2M NH4OAc at pH 5.0 at 1 mg/ml at room temperature assessed as ratio of Asn-containing cyclic peptides after 48 hrs by HPLC method; assay type: physicochemical; details: 0.2 M NH4OAc buffer, read-out: Stability
Where a SMILES comes first, the peptide text is derived from it. Bridges are numbered along the chain shown (N, C = ends).
MEASURED_METRIC: remaining at 48 h, 1 mg/ml (%)

1 = CC(=O)N[C@H]1CSSC[C@@H](C(N)=O)NC(=O)[C@H](CCCNC(=N)N)NC(=O)CNC(=O)[C@H](CC(N)=O)NC1=O (Ac-CNGRC-NH2; disulfide 1-5)
2 = N=C(N)NCCC[C@@H]1NC(=O)CNC(=O)[C@H](CC(N)=O)NC(=O)CSC[C@@H](C(N)=O)NC1=O ({CH2CO}-NGRC-NH2; thioether N-4)
INPUT: Which of these two has the smaller recorded remaining at 48 h, 1 mg/ml: 1 or 2 ? Which one? Tell me its label.
OUTPUT: 2

---

test: Chemical stability 0.1M Tris buffer at pH 8.1 at 1 mg/ml at room temperature assessed as ratio of Asn-containing cyclic peptides after 24 hrs by HPLC method; type: physicochemical; conditions: read-out: Stability
Where a SMILES comes first, the peptide text is derived from it. Bridges are numbered along the chain shown (N, C = ends).
MEASURED_METRIC: remaining at 24 h, 1 mg/ml (%)

• N=C(N)NCCC[C@@H]1NC(=O)CNC(=O)[C@H](CC(N)=O)NC(=O)CCSC[C@@H](C(N)=O)NC1=O = 86

I = N=C(N)NCCC[C@@H]1NC(=O)CNC(=O)[C@H](CC(N)=O)NC(=O)[C@H](CCCCN)NC(=O)CSC[C@@H](C(N)=O)NC1=O ({CH2CO}-KNGRC-NH2; thioether N-5)
II = CC(=O)N[C@H]1CSSC[C@@H](C(N)=O)NC(=O)[C@H](CCCNC(=N)N)NC(=O)CNC(=O)[C@H](CC(N)=O)NC1=O (Ac-CNGRC-NH2; disulfide 1-5)
INPUT: I'd appreciate it if you could identify which of I and II has the greater remaining at 24 h, 1 mg/ml. Reply with the label of the item you choose.
OUTPUT: II

---

test: Chemical stability PBS buffer at pH 7.4 at 1 mg/ml at room temperature assessed as ratio of Asn-containing cyclic peptides after 24 hrs by HPLC method; type: physicochemical; conditions: read-out: Stability
Where a SMILES comes first, the peptide text is derived from it. Bridges are numbered along the chain shown (N, C = ends).
MEASURED_METRIC: remaining at 24 h, 1 mg/ml (%)

1 = N=C(N)NCCC[C@@H]1NC(=O)CNC(=O)[C@H](CC(N)=O)NC(=O)CSCCC(C(N)=O)NC1=O (single isomer, unassigned)
2 = N=C(N)NCCC[C@@H]1NC(=O)CNC(=O)[C@H](CC(N)=O)NC(=O)CSC[C@@H](C(N)=O)NC1=O ({CH2CO}-NGRC-NH2; thioether N-4)
3 = CC(=O)N[C@H]1CSSC[C@@H](C(N)=O)NC(=O)[C@H](CCCNC(=N)N)NC(=O)CNC(=O)[C@H](CC(N)=O)NC1=O (Ac-CNGRC-NH2; disulfide 1-5)
INPUT: Highest remaining at 24 h, 1 mg/ml first, then in falling order down to the smallest. Please, when replying, give the labels in the order that was requested.
OUTPUT: 3, 1, 2

P = N=C(N)NCCC[C@@H]1NC(=O)CNC(=O)[C@H](CC(N)=O)NC(=O)[C@@H]2CCCN2C(=O)CSC[C@@H](C(N)=O)NC1=O ({CH2CO}-PNGRC-NH2; thioether N-5)
Q = N=C(N)NCCC[C@@H]1NC(=O)CNC(=O)[C@H](CC(N)=O)NC(=O)[C@H](CCCCN)NC(=O)CSC[C@@H](C(N)=O)NC1=O ({CH2CO}-KNGRC-NH2; thioether N-5)
INPUT: Could you kindly indicate whether P or Q has the higher remaining at 24 h, 1 mg/ml value? Use the label to indicate which entry you chose.
OUTPUT: P
(P: 86%, Q: 58%)

---

assay: Chemical stability 0.1M Tris buffer at pH 8.1 at 1 mg/ml at room temperature assessed as ratio of Asn-containing cyclic peptides after 48 hrs by HPLC method; assay type: physicochemical; details: read-out: Stability
Where a SMILES comes first, the peptide text is derived from it. Bridges are numbered along the chain shown (N, C = ends).
MEASURED_METRIC: remaining at 48 h, 1 mg/ml (%)

1 = N=C(N)NCCC[C@@H]1NC(=O)CNC(=O)[C@H](CC(N)=O)NC(=O)CSCCC(C(N)=O)NC1=O (single isomer, unassigned)
2 = N=C(N)NCCC[C@@H]1NC(=O)CNC(=O)[C@H](CC(N)=O)NC(=O)CSC[C@@H](C(N)=O)NC1=O ({CH2CO}-NGRC-NH2; thioether N-4)
3 = N=C(N)NCCC[C@@H]1NC(=O)CNC(=O)[C@H](CC(N)=O)NC(=O)[C@H](CCCCN)NC(=O)CC[C@@H](C(N)=O)NC1=O (KNGRE-NH2; lactam N-5)
INPUT: hey, can you rank those compounds up there by remaining at 48 h, 1 mg/ml? biggest number first please Rank the items, then write their labels in that order.
OUTPUT: 3, 1, 2

---

biological target: Integrin alpha-V/beta-3 (Homo sapiens) (UniProt P05106+P06756); assay: Binding affinity to integrin alphav beta3 receptor assessed as receptor-mediated cell adhesion in human A2058 cells at 10 nM to 1 uM and measured every 20 seconds for 25 hrs at 10 kHz by xCELLigence SP system based method
Calls of active or inactive are those of the source. No cut-off for these calls is given here. Where a SMILES comes first, the peptide text is derived from it. Bridges are numbered along the chain shown (N, C = ends).
Your answer must be one of the following: active, inactive

The following compounds have reported results that may help.
- N=C(N)NCCC[C@@H]1NC(=O)CNC(=O)[C@H](CC(N)=O)NC(=O)CSCCC(C(N)=O)NC1=O (single isomer, unassigned): inactive
- N=C(N)NCCC[C@@H]1NC(=O)CNC(=O)[C@H](CC(N)=O)NC(=O)[C@H](CCCCN)NC(=O)CSC[C@@H](C(N)=O)NC1=O ({CH2CO}-KNGRC-NH2; thioether N-5): inactive

INPUT: Would you mind telling me which call this test gave N=C(N)NCCC[C@@H]1NC(=O)CNC(=O)[C@H](CC(N)=O)NC(=O)[C@@H]2CCCN2C(=O)CSC[C@@H](C(N)=O)NC1=O ({CH2CO}-PNGRC-NH2; thioether N-5) ?
OUTPUT: inactive

INPUT: Do the same for N=C(N)NCCC[C@@H]1NC(=O)CNC(=O)[C@H](CC(N)=O)NC(=O)CCSC[C@@H](C(N)=O)NC1=O please
OUTPUT: active

---

assay: Chemical stability PBS buffer at pH 7.4 at 1 mg/ml at room temperature assessed as ratio of Asn-containing cyclic peptides after 48 hrs by HPLC method; assay type: physicochemical; settings: read-out: Stability
Where a SMILES comes first, the peptide text is derived from it. Bridges are numbered along the chain shown (N, C = ends).
MEASURED_METRIC: remaining at 48 h, 1 mg/ml (%)

* N=C(N)NCCC[C@@H]1NC(=O)CNC(=O)[C@H](CC(N)=O)NC(=O)[C@@H]2CCCN2C(=O)CSC[C@@H](C(N)=O)NC1=O ({CH2CO}-PNGRC-NH2; thioether N-5) | 75
* N=C(N)NCCC[C@@H]1NC(=O)CNC(=O)[C@H](CC(N)=O)NC(=O)[C@H](CCCCN)NC(=O)CSC[C@@H](C(N)=O)NC1=O ({CH2CO}-KNGRC-NH2; thioether N-5) | 43

P = N=C(N)NCCC[C@@H]1NC(=O)CNC(=O)[C@H](CC(N)=O)NC(=O)CSCCC(C(N)=O)NC1=O (single isomer, unassigned)
Q = N=C(N)NCCC[C@@H]1NC(=O)CNC(=O)[C@H](CC(N)=O)NC(=O)CSC[C@@H](C(N)=O)NC1=O ({CH2CO}-NGRC-NH2; thioether N-4)
INPUT: Out of P and Q , name the one with the higher remaining at 48 h, 1 mg/ml. Label of pick, please.
OUTPUT: P
(P: 44%, Q: 15%)
